Assay Procedure: inhibitors of the yeast RAM network, pilot screen, dse1pr::URA3 reporter, 5-FOA selection (AID 869);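 further: 0% = DMSO wells with no growth and 100% = 10 µM 1-NA-PP1 with full growth; RAM network block rescues cells from 5-FOA so hits raise OD615 growth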
Experimental Parameters: S. cerevisiae dse1pr::URA3 5-FOA growth, OD615, 2 d; at 10 µM; active compounds read high; strain carries analog-sensitive mutant Cbk1 kinase
Measurement Name: inhibition (%)

>>> reported_result("Cn1c(=O)c2c(nc(OCc3ccccc3)n2C)n(C)c1=O")
-0.115
>>> reported_result("CCOC(=O)N1CCC(N2CC34C=CC(O3)C(C(=O)Nc3ccc(OCC)cc3)C4C2=O)CC1 (configuration not stated)")
0.595
>>> reported_result("CCOC(=O)c1ccc(NCn2c(=O)oc3ccccc32)cc1")
-0.385
>>> reported_result("C=CCn1c(SCCC#N)nnc1-c1ccncc1")
1.88
>>> reported_result("O=C(c1cc(-c2ccc(O)cc2)on1)N1CCCc2ccccc21")
0.66
>>> reported_result("Nc1ccc(OCc2ccccc2)cc1")
1.9
>>> reported_result("N#Cc1c2n(c3c(-c4ccccc4)ncnc13)CCC2")
2.73
>>> reported_result("Cc1nc(N2CCN(C(=O)c3ccco3)CC2)c2c3c(sc2n1)CCC3")
1.16
>>> reported_result("C/C(N)=C(/C#N)C(=O)CSc1n[nH]c(-c2ccccc2Br)n1")
-0.48
>>> reported_result("COC(=O)c1nc2cc(C)ccn2c1F")
2.7
>>> reported_result("Cc1cc(C(=O)N2CCN(S(C)(=O)=O)CC2)cs1")
1.6
>>> reported_result("COc1ccccc1N1CCN(C(=O)COc2ccc(C)cc2Br)CC1")
-0.16

----------
Assay Procedure: OD615 S. cerevisiae growth inhibition, permissive medium, pilot counter-assay, permissive growth control for S. cerevisiae lifespan shortening project (AID 705)
Experimental Parameters: OD615, 24 h, at 10 µM, active compounds read high
growth inhibition overview
Measurement Name: growth inhibition (%)

>>> reported_result("Cc1cccc(OCC(=O)NCc2ccncc2)c1C")
-7.54
>>> reported_result("COC(=O)CCS(=O)(=O)c1cc(Cl)ccc1Cl")
-5.18
>>> reported_result("Cc1c(=O)n(OCc2ccccc2)c2ccccc2[n+]1[O-]")
-0.885
>>> reported_result("O=C(Nc1cnc2ccccc2c1)c1cccnc1")
4.78
>>> reported_result("O=S(=O)(Nc1ccc(O)cc1)c1cccc2cccnc12")
-1.12
>>> reported_result("COc1ccc(NC(=O)Nc2ccc3c(c2)N(C)C(=O)CS3)cc1OC")
-18.9
>>> reported_result("O=C(CCCOc1ccccc1)Nc1cccc(C(=O)O)c1")
-0.54
>>> reported_result("COc1ccc(CC2CCOC2=O)cc1 (configuration not stated)")
-10.7
>>> reported_result("O=C(NCCc1ccccc1)c1ccncc1")
-5.38
>>> reported_result("Cc1cc2oc3c(c(=O)c2cc1C)C(c1ccc(C(C)C)cc1)N(CCCN1CCOCC1)C3=O (configuration not stated)")
-7.04
>>> reported_result("c1ccc2c(c1)CCCN2c1nc2ccccc2n2cnnc12")
-6.12
>>> reported_result("CCOCCCNC(=O)C(NC(=O)c1cnccn1)c1ccc(OC)cc1 (configuration not stated)")
-8.29

----------
viability increase overview
Assay Procedure: viability gain of MRP-1-high H69AR cells under doxorubicin, pilot screen, MRP-1 activator project, CellTiter-Glo, duplicate (AID 807);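 further: compound pretreatment 18-22 h then 72 h combined with doxorubicin; 0% = doxorubicin alone and 100% = vehicle without doxorubicin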
Experimental Parameters: H69AR viability with doxorubicin, CellTiter-Glo luminescence; at 10 µM; active compounds read high
Measurement Name: viability increase (%)

>>> reported_result("COc1ccc(N)cc1C#N")
-3.17
>>> reported_result("Cc1ccc(-n2ncc3c(NCc4ccco4)ncnc32)c(C)c1")
-4.75
>>> reported_result("CCCc1n[nH]c2c1C(=O)C(C(=O)OC)C(C)(C)C2 (stereo unspecified)")
-3.14
>>> reported_result("CCS(=O)(=O)N1CCN(c2cccc(C)c2C)CC1")
-1.48
>>> reported_result("CC(C)OC(=O)c1nnc(Cc2ccc(F)cc2)o1")
2.12
>>> reported_result("COC(=O)c1sc(NC(=O)C2CCCCC2C(=O)O)c(C(=O)OC)c1C (stereo unspecified)")
-2.78
>>> reported_result("Cc1ccc(-n2c(SCC(=O)NCC3CCCO3)nc3c(c2=O)SCC3)cc1 (stereo unspecified)")
-1.96
>>> reported_result("CC(C)N(Cc1nc(-c2ccc(Cl)cc2)no1)C(=O)CCCN1C(=O)c2ccccc2C1=O")
5.41
>>> reported_result("CCOC(=O)c1ccc(NS(=O)(=O)c2cc(-c3nnnn3CC)ccc2OC)cc1")
-2.01
>>> reported_result("O=C(CSc1ccc2nnc(-c3ccc(Cl)cc3)n2n1)N1CCN(c2ccccc2)CC1")
-3.11
>>> reported_result("Cc1ccc(Sc2oc(/C=N/n3cnnc3)cc2Br)cc1")
-7

----------
Assay Procedure: viability gain of MRP-1-high H69AR cells under doxorubicin, pilot screen, MRP-1 activator project, CellTiter-Glo, duplicate (AID 807);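 further: compound pretreatment 18-22 h then 72 h combined with doxorubicin; 0% = doxorubicin alone and 100% = vehicle without doxorubicin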
Experimental Parameters: H69AR viability with doxorubicin, CellTiter-Glo luminescence; at 10 µM; active compounds read high
Measurement Name: viability increase (%)

>>> reported_result("O=C(Cn1nc(-c2ccc(Cl)cc2)ccc1=O)NCC1CCCO1 (stereo unspecified)")
-1.53
>>> reported_result("COC(=O)C1=C(C)N(C)C(=O)NC1c1ccc(O)c(OC)c1 (stereo unspecified)")
-0.98
>>> reported_result("CCCC(=O)NC(C)c1nc2ccccc2n1C (stereo unspecified)")
2.12
>>> reported_result("COc1ccccc1NC(=O)CSc1nnc(C)o1")
-1.19
>>> reported_result("Cn1c(C(=O)N2CCN(c3ccccc3F)CC2)cc2c(=O)n(C)c3ccccc3c21")
-2.61
>>> reported_result("COc1ccc(Cl)cc1N1C(=O)C2CCCN2C1c1ccccc1F (stereo unspecified)")
-3.84
>>> reported_result("Cc1ccc(C(=O)N2CCN(C3CCCCC3)CC2)s1")
-1.15
>>> reported_result("CCN(CC)S(=O)(=O)c1ccc(-c2nnc3sc4cccc(C)c4n23)cc1")
-2.97
>>> reported_result("CC1CCCN(C(=O)C2CCN(S(=O)(=O)c3cccc4cccnc34)CC2)C1 (stereo unspecified)")
-3.54
>>> reported_result("O=C(C1CCN(S(=O)(=O)c2cccc3cccnc23)CC1)N1CC=C(c2ccccc2)CC1")
-2.61
>>> reported_result("CCCCC(=O)Nc1ccc2c(c1)C(=O)NC2=O")
0.07

----------
Assay Procedure: Restrictive medium S. cerevisiae growth inhibition, OD615, pilot screen of yeast lifespan reduction project, restrictive growth control (AID 706);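 further: modified DeaD lifespan yeast strain shifted to restrictive glucose medium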
Experimental Parameters: OD615, 48 h, at 10 µM, active compounds read high
Measurement Name: growth inhibition (%)

>>> reported_result("CCCn1cnc2cc(NCc3ccccn3)ccc21")
8.03
>>> reported_result("COCCn1c(SCCN2CCOCC2)nc2c1c(=O)[nH]c(=O)n2C")
-4.84
>>> reported_result("COc1ccc(C2SCC(C(=O)O)N2C(C)=O)cc1OC (configuration not stated)")
1.78
>>> reported_result("Nn1c(SCc2ccccc2)nnc1-c1ccco1")
3.38
>>> reported_result("CC(=O)Nc1cc2ccc(OC(C)=O)cc2oc1=O")
-13.9
>>> reported_result("O=C(CSc1nc2sc3c(c2c(=O)n1-c1ccccc1)CCCC3)NCc1ccco1")
-5.03
>>> reported_result("O=C(O)c1ccccc1C(=O)c1cccs1")
-17.1
>>> reported_result("CC1CC(C)CN(C(=O)CSc2nnc(-c3ccc(F)cc3)o2)C1 (configuration not stated)")
5.43
>>> reported_result("CCc1cc(C(=O)COc2ccccc2F)c(O)cc1O")
11.9
>>> reported_result("COc1cc2[nH]c(=O)n(CCC(=O)NC3CCN(Cc4ccccc4)CC3)c(=O)c2cc1OC")
-8.45
>>> reported_result("O=C1CN(C(=O)CN2CCOCC2)C(c2ccccc2)c2cc(Br)ccc2N1 (configuration not stated)")
-11.4
>>> reported_result("COC(=O)c1cc(-c2ccc3c(c2)OCO3)nc2ccccc12")
-4.56

----------
Assay Procedure: growth suppression of PTEN-deleted HCT116, pilot screen, cell-based, HCT116 clonal line, CellTiter-Glo (AID 824);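 further: 0% = 20 µM Hyamine control and 100% = vehicle cell control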
Experimental Parameters: 60 h, at 10 µM, active compounds read low
Records with an inconclusive call do not appear.
Measurement Name: viability (%)

>>> reported_result("CCOC(=O)c1sc(NC(=O)c2cc(S(=O)(=O)N3CCOCC3)ccc2C)nc1C")
86.6
>>> reported_result("COc1ccccc1NC(=O)c1ccc(S(=O)(=O)N(C)C)cc1")
105
>>> reported_result("CCOc1ccc(CC(=O)N2CCN(c3ccc(N4CCOCC4)nn3)CC2)cc1OCC")
106
>>> reported_result("COc1cc(C2C(C(=O)Nc3ccccc3OC)=C(C)Nc3ncnn32)ccc1O (stereo not drawn)")
95.3
>>> reported_result("CCc1ccc(NC(=O)C2CC=CCC2C(=O)O)cc1 (stereo not drawn)")
98.9
>>> reported_result("O=C(CC1Oc2ccccc2NC1=O)NC1CC1 (stereo not drawn)")
93.5
>>> reported_result("COc1ccc(Cl)cc1NC(=O)c1nc2nc(C)cc(C(F)F)n2n1")
88.4
>>> reported_result("CC1(C)Cc2c(C#N)c(N3CCCC3)nc(-c3ccco3)c2CO1")
85.7
>>> reported_result("Cc1cc(C)nc(N(C#N)Cc2ccccc2Cl)n1")
95.5
>>> reported_result("O=C1C2CCCN2C(c2ccccc2)N1c1ccc(F)cc1 (stereo not drawn)")
89.3
>>> reported_result("CCOC(=O)c1nn(-c2ccc3c(c2)CCN3C(C)=O)cc1O")
92.7
>>> reported_result("Cn1c(C(=O)N2CCN(C3CCCCC3)CC2)cc2c(=O)n(C)c3ccccc3c21")
101
>>> reported_result("CN(CCNC(=O)Cn1c(=O)sc2ccccc21)Cc1ccccc1")
82.3
>>> reported_result("CC(=O)c1cccc(NC(=O)C2CCCC2)c1")
95.4
>>> reported_result("O=C(Oc1ccnc2cc(Cl)ccc12)N1CCOCC1")
87.8
>>> reported_result("CC(C)N1CCc2c(sc(NC(=O)c3ccc(S(=O)(=O)N4CCOCC4)cc3)c2C#N)C1")
86.3
>>> reported_result("O=C(Nc1ccc(Br)cc1F)c1ccc2c(c1)N(Cc1ccccc1)C(=O)CS2=O (stereo not drawn)")
67.8
>>> reported_result("CCOc1ccccc1NC(=O)CCS(=O)(=O)c1cccc2nonc12")
96.3
>>> reported_result("N#CCCN1CCN(S(=O)(=O)c2ccc(S(=O)(=O)N3CCCCCC3)cc2)CC1")
94.3
>>> reported_result("Cc1cc(C)c(NC(=O)CN2CCN(C)CC2)c(C)c1")
92.3
>>> reported_result("Cc1ccc2c(c1)N(CCCC(=O)NCCCN1CCCC1=O)C(=O)CO2")
94
>>> reported_result("Cc1cc(Nc2cc(F)ccc2C)n2ncnc2n1")
97.3
>>> reported_result("CCOc1ccc(N(CC(=O)Nc2ccc3c(c2)OCCO3)S(=O)(=O)c2c(C)noc2C)cc1")
87
